The following compounds are shown together with reported ED50 values.
details: modified writhing test
measuredAttribute: ED50

compound: CC1CCC=C2N(C)C=C(C(N)=O)C(=O)N21 (stereo not shown)
reportedMeasurement: 70 mg/kg
--
compound: CCCCC1C(=O)N(c2ccccc2)N(c2ccccc2)C1=O
reportedMeasurement: 63 mg/kg
--
compound: COc1cc(C)nc(-n2nc(C)cc2OC)n1
reportedMeasurement: 380 mg/kg
--
compound: COc1ccc2c(c1)c(CC(=O)O)c(C)n2C(=O)c1ccc(Cl)cc1
reportedMeasurement: 2.4 mg/kg

====

# Lookup of reported LD50 keyed by entry
test: in vivo; details: mouse, po

compound: CC(=O)Oc1ccccc1C(=O)O
LD50, mg/kg: 1100

compound: CC1CCC=C2N(C)C=C(C(N)=O)C(=O)N21 (centres unmarked)
LD50, mg/kg: 975

This collection of values is drawn from patent US4495189A.
